# Tested on: MDAMB 231
# assayComment: Antiproliferation MTT assay, MDAMB 231
# Assay type: cell-based
# runConditions: Homo sapiens, MDA-MB-231; Breast cancer
recordedEndpoint: pIC50
Give only the number. pIC50 is defined as minus log10 of concentration in molar units.

Output measured pIC50 for this item: `CN(Cc1cn2cc(-c3cnc(N)nc3)nc(N3CCOCC3)c2n1)c1ncc(C(=O)NO)cn1`
6.74

Give reported pIC50 value for `Nc1ncc(-c2cn3cc(CNc4ncc(C(=O)NO)cn4)nc3c(N3CCOCC3)n2)cn1`
5.24

Could you please provide reported pIC50 for `Nc1ncc(-c2cn3cc(CN4CCN(c5ncc(C(=O)NO)cn5)CC4)nc3c(N3CCOCC3)n2)cn1` ? Thanks!
6.25
